These measurements were taken from ChEMBL document CHEMBL4321845.

Assay: AUC (last) in beagle dog at 30 mg/kg, po measured up to 24 hrs by LC-MS/MS analysis
Format: ADME, organism-based, Canis lupus familiaris
Parameters: dose 30 mg/kg, route oral, time 0 - last
Conditions: in vivo
PROPERTY_NAME: AUC(0-t) at 24 h (µM·h)
Numbers only, in µM·h.

Form: molecule = `COC(=O)N[C@H](C(=O)N1CCC[C@H]1c1ncc(-c2ccc3c(ccc4cc(-c5cnc([C@@H]6CCCN6C(=O)[C@@H](NC(=O)OC)C(C)C)[nH]5)sc43)c2)[nH]1)C(C)C` ; AUC(0-t) at 24 h = 86

====

Give inhibition at 10 min, 10 µM for every item shown.
Molecular target: CYP2D6 (Homo sapiens, UniProt P10635)
Sequence (P10635 whole entry): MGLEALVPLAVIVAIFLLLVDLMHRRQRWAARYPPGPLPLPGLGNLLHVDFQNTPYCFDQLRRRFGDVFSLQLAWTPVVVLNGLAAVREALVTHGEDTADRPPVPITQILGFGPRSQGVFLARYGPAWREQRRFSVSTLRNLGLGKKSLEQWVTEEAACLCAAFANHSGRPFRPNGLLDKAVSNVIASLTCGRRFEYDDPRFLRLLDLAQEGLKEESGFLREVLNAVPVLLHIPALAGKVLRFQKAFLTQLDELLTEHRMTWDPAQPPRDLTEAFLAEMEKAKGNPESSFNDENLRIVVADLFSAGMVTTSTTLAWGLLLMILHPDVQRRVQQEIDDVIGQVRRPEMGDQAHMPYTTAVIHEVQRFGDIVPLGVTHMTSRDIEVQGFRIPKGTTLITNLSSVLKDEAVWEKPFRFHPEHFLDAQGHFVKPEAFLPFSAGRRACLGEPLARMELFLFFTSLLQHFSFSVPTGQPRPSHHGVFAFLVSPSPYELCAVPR
Test: Inhibition of CYP2D6 in pooled human liver microsomes at 10 uM pre-incubated for 5 mins before NADPH addition and measured after 10 mins by UPLC-MS/MS analysis relative to control
Type: ADME
Numbers only, in %.

# batch size: 4; output inhibition at 10 min, 10 µM per entry
1. COC(=O)N[C@H](C(=O)N1CCC[C@H]1c1ncc(-c2ccc3c(c2)OCC(C)(C)COc2cc(-c4cnc([C@@H]5CCCN5C(=O)[C@@H](NC(=O)OC)C(C)C)[nH]4)ccc2-3)[nH]1)C(C)C
2. COC(=O)N[C@H](C(=O)N1CCC[C@H]1c1nc(Cl)c(-c2ccc3c(c2)OCC(C)(C)COc2cc(-c4[nH]c([C@@H]5CCCN5C(=O)[C@@H](NC(=O)OC)C(C)C)nc4Cl)ccc2-3)[nH]1)C(C)C
3. COC(=O)N[C@H](C(=O)N1CCC[C@H]1c1ncc(-c2ccc3c(ccc4cc(-c5cnc([C@@H]6CCCN6C(=O)[C@@H](NC(=O)OC)C(C)C)[nH]5)sc43)c2)[nH]1)C(C)C
4. COC(=O)N[C@H](C(=O)N1CCC[C@H]1c1ncc(-c2ccc3c(c2)CCc2cc(-c4cnc([C@@H]5CCCN5C(=O)[C@@H](NC(=O)OC)C(C)C)[nH]4)sc2-3)[nH]1)C(C)C

17
6
12
36

Entry `COC(=O)N[C@H](C(=O)N1CCC[C@H]1c1ncc(-c2ccc3c(c2)OCc2cc(-c4cnc([C@@H]5CCCN5C(=O)[C@@H](NC(=O)OC)C(C)C)[nH]4)sc2-3)[nH]1)C(C)C` , inhibition at 10 min, 10 µM reported as 13
